F. IND = fold induction: induction with 200 ppb Cs at 24 hrs/repression at 48 hrs values, listed per item
# System: E. coli assay strain Km3
# Format: cell-based
# Measurement Setup: library L8 hits; M9 Xgal colony assay; ratio IND (200 ppb Cs, 24 hrs) / REP (48 hrs)
Recorded Endpoint: F. IND = fold induction: induction with 200 ppb Cs at 24 hrs/repression at 48 hrs

{"columns": ["Molecule", "Recorded Value"],
 "data": [
  ["L8-1A05 (protein, Sulfonylurea responsive repressor) MARLDKSKVINSALELLNEVGIEGLTTRKLAQKLGVEQPTLYWHVKNKRALLDALAIEMMDRHQTHYSPLEGESWQDFLRNNAKSCRRALLSHRDGAKVCLGTRWTEQQYESAENMLAFLTQQGFSLENALYAVDAVRVFTLGAVLFDQESQVAKEERETPTTDSMPPLLRQAWELKDHQGAEPAFLFGLELIIAGLEKQLKAESGS", 2.5],
  ["L6-4D10: library L6 clone, parent of library L8 hits (protein, Sulfonylurea responsive repressor, library L6 clone, parent of library L8 hits) MGSRLDKSKVINSALELLNEVGIEGLTTRKLAQKLGVEQPTLYWHVKNKRALLDALAIEMMDRHQTHYCPLEGESWQDFLRNNAKSMRCALLSHRDGAKVCLGTRWTEKQYESAENMLAFLCQQGFSLENALYAVSAVRVFTLGCVLFDQESQVAKEERETPTTASMPPLLRQAWELKDHQGAEPAFLFGLELIICGLEKQLKCESGS", 0.4]
]}
